Target: MMP-1 (Homo sapiens)
Construct: made in house; host or cells: MMP-1-transfected HT-1080 cells (spent media)
Sequence (P03956 100-469): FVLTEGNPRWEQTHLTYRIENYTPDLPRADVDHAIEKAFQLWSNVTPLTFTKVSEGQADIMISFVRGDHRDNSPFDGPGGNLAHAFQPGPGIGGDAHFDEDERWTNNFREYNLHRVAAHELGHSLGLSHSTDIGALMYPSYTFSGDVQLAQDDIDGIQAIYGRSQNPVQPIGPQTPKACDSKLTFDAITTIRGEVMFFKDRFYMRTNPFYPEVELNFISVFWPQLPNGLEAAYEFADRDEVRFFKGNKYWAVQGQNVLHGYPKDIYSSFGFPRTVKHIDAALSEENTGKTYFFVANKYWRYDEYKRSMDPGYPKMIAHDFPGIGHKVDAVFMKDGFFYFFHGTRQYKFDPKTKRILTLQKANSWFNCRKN
Assay: MMP-1 inhibition (in vitro Ki)
Format: biochemical
Settings: Table 9; read-out: MMP-1 Ki (IC-50)
measurementKind: Ki (µM)

# compound, Ki / µM
rows = [
    ("O=C(CCCCC1CCN(S(=O)(=O)C2(C(=O)NO)CCOCC2)CC1)N1CC2CCCCC2C1 (stereo not shown) [Example A88]", 2.78),
    ("COCCC(CCOC)(C(=O)NO)S(=O)(=O)N1CCC(c2ccc(CCC(F)(F)C(F)(F)F)cn2)CC1 [Example A107]", 4.44),
    ("O=C(NO)C1(S(=O)(=O)N2CCN(c3ccc(-c4ccsc4)c(F)c3)CC2)CCOCC1 [Example A205]", 3.59),
    ("O=C(CCCCC1CCN(S(=O)(=O)C2(C(=O)NO)CCOCC2)CC1)N1CCCCC1 [Example A92]", 3.91),
]

---

Molecular target: MMP-1 (Homo sapiens)
Construct: made in house; host or cells: MMP-1-transfected HT-1080 cells (spent media)
Experiment: In vitro MMP inhibition, Ki determination (fluorogenic substrate II)
Format: biochemical
Conditions: value outside parentheses; read-out: MMP-1 Ki
Description: Several hydroxamic acids and salts thereof were analyzed in in vitro assays to determine their ability to inhibit the MMP cleavage of peptide substrates. […] and IC50 constants were calculated from the assayed hydroxamic acid-MMP interactions. […] The assays from which the Ki determinations were made were performed as follows. […] In the absence of MMP inhibitory activity, substrate II was cleaved at the Gly-Leu bond resulting in an increase of relative fluorescence. […]
pKi: −log10 of the molar value.
measurementKind: pKi

(A) O=C(NO)C1(S(=O)(=O)N2CCN(c3ccc(OCC(F)(F)C(F)F)cc3)CC2)CCOCC1 [Example 326]
(B) O=C(NO)C1(S(=O)(=O)N2CCN(c3ncc(-c4ccc([N+](=O)[O-])cc4)s3)CC2)CCOCC1
I'm curious whether A or B has the smaller pKi number. Which is it? Lab note: record the label of whichever item you select.
A
(A: 5.18, B: 5.63)

---

target: MMP-2 (Homo sapiens); construct: made in house; host or cells: MMP-2-transfected p2AHT2 cells; experiment: In vitro MMP inhibition, Ki determination (fluorogenic substrate II); format: biochemical; details: value outside parentheses; read-out: MMP-2 Ki
Sequence (P08253 110-660): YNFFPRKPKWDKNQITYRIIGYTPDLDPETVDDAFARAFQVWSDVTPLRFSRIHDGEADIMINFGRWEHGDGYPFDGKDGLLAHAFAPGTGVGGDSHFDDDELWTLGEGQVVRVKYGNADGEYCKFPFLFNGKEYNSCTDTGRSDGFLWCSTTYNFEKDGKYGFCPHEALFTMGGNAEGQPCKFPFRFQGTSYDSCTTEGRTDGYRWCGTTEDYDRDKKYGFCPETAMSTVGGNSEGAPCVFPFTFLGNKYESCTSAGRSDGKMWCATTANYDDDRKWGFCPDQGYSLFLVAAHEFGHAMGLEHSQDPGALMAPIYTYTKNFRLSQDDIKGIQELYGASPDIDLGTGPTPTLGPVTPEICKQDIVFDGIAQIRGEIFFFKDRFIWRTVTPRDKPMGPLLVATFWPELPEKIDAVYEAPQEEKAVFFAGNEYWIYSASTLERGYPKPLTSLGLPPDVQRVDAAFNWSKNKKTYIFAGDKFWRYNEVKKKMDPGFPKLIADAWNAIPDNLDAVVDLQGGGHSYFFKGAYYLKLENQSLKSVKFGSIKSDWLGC
measurementKind: Ki (nM)

# annotated cases, reported Ki shown
# smilesStructure, Ki / nM
rows = [
    ("O=C(NO)C1(S(=O)(=O)N2CCC(c3ccc(-c4cccnc4)cn3)CC2)CCOCC1", 12.3),
    ("CCCCOc1ccc(C2CCN(S(=O)(=O)C3(C(=O)NO)CCOCC3)CC2)nc1", 0.55),
    ("O=C(NO)C1(S(=O)(=O)N2CCC(c3ccc(OCC(F)(F)C(F)(F)F)cc3)CC2)CCOCC1", 1.18),
    ("CCCCOc1ccc(N2CCN(S(=O)(=O)C3(C(=O)NO)CCN(C(=O)c4cccnc4)CC3)CC2)cc1", 0.422),
]

(P) O=C(NO)C1(S(=O)(=O)N2CCN(c3ccc(Br)cn3)CC2)CCOCC1
(Q) CCCCOc1ccc(N2CCN(S(=O)(=O)C3(C(=O)NO)CCN(CCOC)CC3)CC2)nc1
# returns the entry with the larger Ki; inputs P and Q Please identify the chosen entry by its label.
Q
(Q: 0.18 nM, P: 0.103 nM)
